Target: PI3K α (Homo sapiens)
Assay: PI3K α kinase assay
Type: biochemical
Details: Table 2
pIC50: −log10 of the molar value.
Reported pIC50 is given for each of the following compounds.

compound | pIC50
Nc1ncnc2c1c(-c1cc3cc(O)ccc3[nH]1)nn2C1CC(=O)C1 [Compound 53] | < 6.30
CC(C)n1nc(-c2cc3cc(F)ccc3[nH]2)c2c(N)ncnc21 [Compound 3] | < 6.30
COc1ccc(Cl)c2cc(-c3nn(C4CCOCC4)c4ncnc(N)c34)[nH]c12 [Compound 61] | < 6.30
COc1cc(Cl)c2[nH]c(-c3nn(C(C)C)c4ncnc(N)c34)cc2c1 [Compound 13] | < 6.30
CC(C)n1nc(-c2cc3ccc(O)cc3[nH]2)c2c(N)ncnc21 [Compound 21] | 6.30 to 7.00
CC(C)n1nc(-c2cc3ccc(C#N)cc3[nH]2)c2c(N)ncnc21 [Compound 24] | < 6.30
CC(C)n1nc(-c2cc3cc(O)c(Cl)cc3[nH]2)c2c(N)ncnc21 [Compound 32] | < 6.30
CC(C)N1CCC(n2nc(-c3cc4cccc(O)c4[nH]3)c3c(N)ncnc32)CC1 [Compound 64] | < 6.30
Nc1ncnc2c1c(-c1cc3cc(O)ccc3[nH]1)nn2CC(=O)N1CCOCC1 [Compound 34] | < 6.30

----------
Assay: Phase I clinical trial: plasma pharmacokinetics
Type: in vivo, human
Settings: human, plasma, oral; 10 mg Q5D

itemSmiles | readoutUnits | AUC
CC(C)n1nc(-c2ccc3oc(N)nc3c2)c2c(N)ncnc21 | µM·h | 10

----------
Test: Phase I clinical trial: plasma pharmacokinetics
Format: in vivo, human
Conditions: human, plasma, oral; 16 mg Q3D

itemSmiles | readoutUnits | AUC
CC(C)n1nc(-c2ccc3oc(N)nc3c2)c2c(N)ncnc21 | µM·h | 8

----------
Assay: Phase I clinical trial: plasma pharmacokinetics
Assay type: in vivo, human
Settings: human, plasma, oral; 20 mg Q3D
Procedure: Adult patients with histologically confirmed advanced solid tumors were enrolled in a 3+3 dose escalation Phase I study evaluating 3 intermittent schedules of administration for compound A: QW (once weekly), QD×3d QW (3 days on 4 days off), and QD×5d QW (5 days on 2 days off), in comparison with daily dosing (QD). Safety, maximum tolerated dose (MTD), pharmacokinetics (PK) and preliminary antitumor activity were evaluated.
parameterMeasured: AUC

molecule | recordedMeasurement
CC(C)n1nc(-c2ccc3oc(N)nc3c2)c2c(N)ncnc21 [compound A] | 10 µM·h

----------
Assay: Phase I clinical trial: plasma pharmacokinetics
Format: in vivo, human
Conditions: human, plasma; oral doses, patients; read-out: mean elimination plasma t1/2 (converted)
parameterMeasured: half-life (h)

compound | parameterMeasured | readoutUnits | recordedMeasurement
CC(C)n1nc(-c2ccc3oc(N)nc3c2)c2c(N)ncnc21 [compound A] | half-life | h | 8

----------
Test: Phase I clinical trial: plasma pharmacokinetics
Assay type: in vivo, human
Conditions: human, plasma, oral; 16 mg Q3D

itemSmiles | Cmax
CC(C)n1nc(-c2ccc3oc(N)nc3c2)c2c(N)ncnc21 | 350 nM

----------
Test: Phase I clinical trial: plasma pharmacokinetics
Format: in vivo, human
Conditions: human, plasma, oral; 40 mg QW
Experimental: Adult patients with histologically confirmed advanced solid tumors were enrolled in a 3+3 dose escalation Phase I study evaluating 3 intermittent schedules of administration for compound A: QW (once weekly), QD×3d QW (3 days on 4 days off), and QD×5d QW (5 days on 2 days off), in comparison with daily dosing (QD). Safety, maximum tolerated dose (MTD), pharmacokinetics (PK) and preliminary antitumor activity were evaluated.

compound | Cmax (nM)
CC(C)n1nc(-c2ccc3oc(N)nc3c2)c2c(N)ncnc21 [compound A] | 700

----------
Biological target: PI3K δ (Homo sapiens, UniProt O00329)
Sequence (O00329 whole entry, species assumed): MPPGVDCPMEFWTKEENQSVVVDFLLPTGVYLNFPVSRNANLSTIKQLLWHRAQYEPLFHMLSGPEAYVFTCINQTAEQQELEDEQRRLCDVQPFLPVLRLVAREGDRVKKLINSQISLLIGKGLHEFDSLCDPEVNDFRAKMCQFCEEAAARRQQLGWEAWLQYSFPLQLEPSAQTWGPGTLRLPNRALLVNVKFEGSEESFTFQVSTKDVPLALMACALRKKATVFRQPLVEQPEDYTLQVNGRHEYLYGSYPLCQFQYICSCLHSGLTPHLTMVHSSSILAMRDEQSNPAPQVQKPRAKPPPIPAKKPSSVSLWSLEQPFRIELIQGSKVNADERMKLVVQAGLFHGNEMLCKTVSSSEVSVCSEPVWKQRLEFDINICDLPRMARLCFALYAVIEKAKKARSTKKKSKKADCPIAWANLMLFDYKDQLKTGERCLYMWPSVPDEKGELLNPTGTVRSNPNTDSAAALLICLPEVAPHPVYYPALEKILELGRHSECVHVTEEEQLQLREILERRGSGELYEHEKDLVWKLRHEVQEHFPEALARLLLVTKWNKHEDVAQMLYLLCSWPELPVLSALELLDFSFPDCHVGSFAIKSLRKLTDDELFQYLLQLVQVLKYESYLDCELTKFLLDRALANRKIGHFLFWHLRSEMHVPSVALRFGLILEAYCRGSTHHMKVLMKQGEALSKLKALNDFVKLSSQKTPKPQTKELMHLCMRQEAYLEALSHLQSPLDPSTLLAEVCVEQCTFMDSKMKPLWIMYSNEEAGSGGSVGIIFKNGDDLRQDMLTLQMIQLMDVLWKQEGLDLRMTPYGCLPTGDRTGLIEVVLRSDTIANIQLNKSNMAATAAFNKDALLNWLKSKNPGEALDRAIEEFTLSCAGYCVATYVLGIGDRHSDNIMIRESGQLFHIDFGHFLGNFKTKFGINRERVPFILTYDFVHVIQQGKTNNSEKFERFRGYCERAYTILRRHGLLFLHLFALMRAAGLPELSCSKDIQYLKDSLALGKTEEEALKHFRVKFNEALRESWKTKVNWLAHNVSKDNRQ
Sequence (P27986 whole entry partner, species assumed): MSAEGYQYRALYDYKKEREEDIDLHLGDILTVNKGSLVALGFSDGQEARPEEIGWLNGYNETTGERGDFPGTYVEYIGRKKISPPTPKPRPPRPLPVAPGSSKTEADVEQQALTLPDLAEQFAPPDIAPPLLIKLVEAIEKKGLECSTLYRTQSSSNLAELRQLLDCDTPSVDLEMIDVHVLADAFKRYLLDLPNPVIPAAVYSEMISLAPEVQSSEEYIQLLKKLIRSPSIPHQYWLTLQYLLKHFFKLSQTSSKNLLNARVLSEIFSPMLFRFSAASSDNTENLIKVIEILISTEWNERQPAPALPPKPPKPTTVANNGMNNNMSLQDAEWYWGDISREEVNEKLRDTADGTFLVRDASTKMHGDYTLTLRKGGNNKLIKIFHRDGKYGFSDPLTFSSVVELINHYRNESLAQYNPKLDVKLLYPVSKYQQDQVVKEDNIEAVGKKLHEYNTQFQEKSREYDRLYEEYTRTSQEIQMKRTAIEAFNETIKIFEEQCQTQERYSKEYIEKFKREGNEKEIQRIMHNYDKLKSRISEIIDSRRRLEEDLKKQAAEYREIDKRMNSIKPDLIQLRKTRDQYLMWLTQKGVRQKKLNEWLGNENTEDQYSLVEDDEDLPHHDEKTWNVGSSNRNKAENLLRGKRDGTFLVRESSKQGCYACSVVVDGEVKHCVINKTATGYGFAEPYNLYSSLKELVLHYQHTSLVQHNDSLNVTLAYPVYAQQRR
Assay: PI3K δ kinase assay
Type: biochemical
Conditions: Table 1
Reported IC50 is given for each of the following molecules.
parameterMeasured: IC50

molecule | recordedMeasurement
CC(=O)N1CCC(n2nc(-c3ccc4oc(N)nc4c3)c3c(N)ncnc32)CC1 [Compound 7] | < 1000 nM
CC(C)n1cc(-c2ccc3oc(N)nc3c2)c2c(N)ncnc21 [Compound 8] | < 1000 nM
Nc1noc2ccc(-c3nn(CC(=O)N4CCOCC4)c4ncnc(N)c34)cc12 [Compound 17] | > 10000 nM
CC(C)(CO)n1nc(-c2ccc3oc(N)nc3c2)c2c(N)ncnc21 [Compound 27] | < 1000 nM
CNc1noc2cc(-c3nn(C(C)C)c4ncnc(N)c34)ccc12 [Compound 13] | < 1000 nM
COC(=O)Nc1noc2ccc(-c3nn(C(C)C)c4ncnc(N)c34)cc12 [Compound 19] | > 10000 nM
CC(C)n1nc(-c2ccc3nc(N)oc3c2)c2c(N)ncnc21 [Compound 4] | < 1000 nM
Cc1nc(N)c2c(-c3ccc4oc(N)nc4c3)nn(C(C)C)c2n1 [Compound 21] | > 10000 nM
Nc1nc2cc(-c3nn(C4CCOCC4)c4ncnc(N)c34)ccc2o1 [Compound 5] | < 1000 nM
Nc1nc2cc(-c3nn(C4CC(=O)C4)c4ncnc(N)c34)ccc2o1 [Compound 25] | < 1000 nM
CC(C)n1nc(-c2ccc3c(NC4CC4)noc3c2)c2c(N)ncnc21 [Compound 14] | < 10000 nM
Nc1nc2cc(-c3nn(C4CCC(N5CCOCC5)CC4)c4ncnc(N)c34)ccc2o1 (stereo not shown) [Compound 6] | < 1000 nM
CC(CO)n1nc(-c2ccc3oc(N)nc3c2)c2c(N)ncnc21 (stereo not shown) [Compound 23] | < 10000 nM
COC(=O)Nc1noc2cc(-c3nn(C(C)C)c4ncnc(N)c34)ccc12 [Compound 20] | < 10000 nM
CC(C)n1nc(-c2ccc3onc(NC4CC4)c3c2)c2c(N)ncnc21 [Compound 16] | > 10000 nM
CC(=O)Nc1nc2cc(-c3nn(C(C)C)c4ncnc(N)c34)ccc2o1 [Compound 2] | < 1000 nM

----------
Target: PI3K α (Homo sapiens, UniProt P42336)
Sequence (P42336 whole entry, species assumed, one chain of several): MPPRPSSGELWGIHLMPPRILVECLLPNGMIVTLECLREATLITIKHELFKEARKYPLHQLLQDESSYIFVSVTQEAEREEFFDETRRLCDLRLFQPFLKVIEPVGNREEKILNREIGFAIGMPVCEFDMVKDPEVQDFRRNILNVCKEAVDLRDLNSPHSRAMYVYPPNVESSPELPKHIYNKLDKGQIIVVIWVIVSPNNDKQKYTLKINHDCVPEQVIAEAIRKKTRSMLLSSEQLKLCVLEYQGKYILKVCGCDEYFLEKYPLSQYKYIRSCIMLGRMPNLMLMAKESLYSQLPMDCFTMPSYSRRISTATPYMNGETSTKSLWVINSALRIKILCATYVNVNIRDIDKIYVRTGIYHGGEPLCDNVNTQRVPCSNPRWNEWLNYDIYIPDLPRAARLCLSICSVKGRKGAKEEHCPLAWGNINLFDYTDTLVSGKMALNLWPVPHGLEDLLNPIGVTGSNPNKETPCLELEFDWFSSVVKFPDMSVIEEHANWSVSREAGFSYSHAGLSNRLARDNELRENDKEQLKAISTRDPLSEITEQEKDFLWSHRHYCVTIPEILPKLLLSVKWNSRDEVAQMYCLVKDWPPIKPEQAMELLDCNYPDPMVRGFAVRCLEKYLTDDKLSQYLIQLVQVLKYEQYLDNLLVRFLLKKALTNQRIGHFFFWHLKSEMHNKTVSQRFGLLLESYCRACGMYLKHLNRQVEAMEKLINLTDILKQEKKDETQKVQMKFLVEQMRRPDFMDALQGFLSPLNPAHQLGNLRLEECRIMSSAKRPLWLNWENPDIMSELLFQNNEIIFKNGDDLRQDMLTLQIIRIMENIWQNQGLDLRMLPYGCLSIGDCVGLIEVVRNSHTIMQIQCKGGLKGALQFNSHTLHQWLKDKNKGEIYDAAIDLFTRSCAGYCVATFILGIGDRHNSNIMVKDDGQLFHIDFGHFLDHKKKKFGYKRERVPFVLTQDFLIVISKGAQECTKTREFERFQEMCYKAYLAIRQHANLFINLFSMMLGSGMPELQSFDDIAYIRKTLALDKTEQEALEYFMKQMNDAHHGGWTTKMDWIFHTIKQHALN
Experiment: PI3K α kinase assay
Format: biochemical
Conditions: Table 1

compound | IC50
CC(C)n1nc(-c2ccc3c(NC4CC4)noc3c2)c2c(N)ncnc21 [Compound 14] | < 10 µM
CC(=O)Nc1nc2cc(-c3nn(C(C)C)c4ncnc(N)c34)ccc2o1 [Compound 2] | < 10 µM
COC(=O)Nc1noc2ccc(-c3nn(C(C)C)c4ncnc(N)c34)cc12 [Compound 19] | > 10 µM
CC(C)(CO)n1nc(-c2ccc3oc(N)nc3c2)c2c(N)ncnc21 [Compound 27] | < 10 µM
CNc1noc2cc(-c3nn(C(C)C)c4ncnc(N)c34)ccc12 [Compound 13] | < 10 µM

----------
Target: mTOR (Homo sapiens)
Construct: purchased Invitrogen
Assay: mTOR kinase inhibition assay
Format: biochemical
Details: Table 2; read-out: mTORC IC50
pIC50: −log10 of the molar value.
parameterMeasured: pIC50

compound | recordedMeasurement
CC(=O)N1CCC(n2nc(-c3cc4ccc(O)cc4[nH]3)c3c(N)ncnc32)CC1 | 8.00 to 8.30
CC(C)n1nc(-c2cc3cc(O)cc(F)c3[nH]2)c2c(N)ncnc21 | > 8.30
CC(C)n1nc(-c2cc3cc(O)c(Cl)cc3[nH]2)c2c(N)ncnc21 | 6.30 to 7.00
COc1ccc2[nH]c(-c3nn(C(C)C)c4ncnc(N)c34)cc2c1 | < 6.30
Nc1ncnc2c1c(-c1cc3c(Cl)cccc3[nH]1)nn2C1CCOCC1 | 7.30 to 7.60
CC(=O)N1CCC(n2nc(-c3cc4c(Cl)ccc(O)c4[nH]3)c3c(N)ncnc32)CC1 | > 8.30
CN1CCN(C2CC(n3nc(-c4cc5cc(O)ccc5[nH]4)c4c(N)ncnc43)C2)CC1 (centres unmarked) | 6.30 to 7.00
CCOC(=O)Cn1nc(-c2cc3cc(O)ccc3[nH]2)c2c(N)ncnc21 | 6.30 to 7.00

----------
Experiment: Phase I clinical trial: plasma pharmacokinetics
Assay type: in vivo, human
Details: human, plasma, oral; 6 mg QD
parameterMeasured: AUC (µM·h)

compound | parameterMeasured | readoutUnits | recordedMeasurement
CC(C)n1nc(-c2ccc3oc(N)nc3c2)c2c(N)ncnc21 [compound A] | AUC | µM·h | 8

----------
Assay: Phase I clinical trial: plasma pharmacokinetics
Assay type: in vivo, human
Settings: human, plasma, oral; 30 mg QW
Experimental: Adult patients with histologically confirmed advanced solid tumors were enrolled in a 3+3 dose escalation Phase I study evaluating 3 intermittent schedules of administration for compound A: QW (once weekly), QD×3d QW (3 days on 4 days off), and QD×5d QW (5 days on 2 days off), in comparison with daily dosing (QD). Safety, maximum tolerated dose (MTD), pharmacokinetics (PK) and preliminary antitumor activity were evaluated.

itemSmiles | readoutUnits | Cmax
CC(C)n1nc(-c2ccc3oc(N)nc3c2)c2c(N)ncnc21 | nM | 600

----------
Molecular target: PI3K γ (Homo sapiens, UniProt P48736)
Sequence (P48736 whole entry, species assumed): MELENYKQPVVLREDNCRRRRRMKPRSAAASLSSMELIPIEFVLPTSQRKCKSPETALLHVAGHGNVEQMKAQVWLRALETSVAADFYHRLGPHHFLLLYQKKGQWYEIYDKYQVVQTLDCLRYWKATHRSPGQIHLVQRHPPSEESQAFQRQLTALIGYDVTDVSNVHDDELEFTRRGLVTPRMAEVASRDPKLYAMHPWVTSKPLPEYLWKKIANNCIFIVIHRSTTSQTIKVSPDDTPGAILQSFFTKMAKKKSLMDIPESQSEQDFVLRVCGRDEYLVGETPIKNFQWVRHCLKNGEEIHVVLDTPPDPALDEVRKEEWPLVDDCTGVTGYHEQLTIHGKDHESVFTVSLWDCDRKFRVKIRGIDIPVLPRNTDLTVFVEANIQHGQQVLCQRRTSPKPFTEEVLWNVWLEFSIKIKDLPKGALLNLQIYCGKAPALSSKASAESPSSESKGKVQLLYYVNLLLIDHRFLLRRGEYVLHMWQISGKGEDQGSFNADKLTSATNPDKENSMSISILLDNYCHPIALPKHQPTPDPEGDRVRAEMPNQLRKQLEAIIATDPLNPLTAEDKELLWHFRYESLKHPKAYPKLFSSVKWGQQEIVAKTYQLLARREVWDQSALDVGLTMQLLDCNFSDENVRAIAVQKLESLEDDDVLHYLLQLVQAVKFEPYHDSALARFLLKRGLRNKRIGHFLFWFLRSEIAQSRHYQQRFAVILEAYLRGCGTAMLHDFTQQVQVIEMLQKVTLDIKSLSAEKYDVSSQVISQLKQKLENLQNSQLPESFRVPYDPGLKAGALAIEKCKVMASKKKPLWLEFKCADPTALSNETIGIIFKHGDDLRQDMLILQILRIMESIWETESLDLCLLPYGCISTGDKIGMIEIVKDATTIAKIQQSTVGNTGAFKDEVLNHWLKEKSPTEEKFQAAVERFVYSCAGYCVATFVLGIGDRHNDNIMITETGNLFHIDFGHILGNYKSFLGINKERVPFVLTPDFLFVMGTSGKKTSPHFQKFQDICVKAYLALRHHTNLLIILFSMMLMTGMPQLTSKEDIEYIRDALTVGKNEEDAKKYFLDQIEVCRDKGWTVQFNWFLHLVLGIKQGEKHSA
Assay: PI3K γ kinase assay
Format: biochemical
Conditions: Table 2
parameterMeasured: IC50

itemSmiles | recordedMeasurement
Nc1ncnc2c1c(-c1cc3ccc(O)cc3[nH]1)nn2C1CCOCC1 | 0.05 to 0.1 µM
COCCn1nc(-c2cc3cc(O)ccc3[nH]2)c2c(N)ncnc21 | > 0.5 µM
CC(C)n1nc(-c2cc3cccc(O)c3[nH]2)c2c(N)ncnc21 | 0.1 to 0.5 µM
Nc1ncnc2c1c(-c1cc3cc(O)ccc3[nH]1)nn2C1CC(=O)C1 | > 0.5 µM
Nc1ncnc2c1c(-c1cc3cccc(O)c3[nH]1)nn2C1CCCC1 | 0.05 to 0.1 µM

Reference source for all entries: patent US20130209543A1
